# System: U251 CNS
# assay-details: NCI tumour cell line growth inhibition, 48 h
metric-name: TGI

                                   compound  metric_name   reading
0        C[N+](C)([O-])C12CC3CC(CC(C3)C1)C2          TGI  > 100 µM
1        CSc1ccc2c(c1)N(CCCN(C)C)c1ccccc1S2          TGI   27.1 µM
2  Cc1nc(Nc2ccc(Cl)c(Cl)c2)sc1C(/C=C/c1ccc2c(c1)OCO2)=N/Nc1ccc([N+](=O)[O-])cc1[N+](=O)[O-]          TGI  > 100 µM
3  C=C(/C=C/C=C(\CO)CCC=C(C)C)[C@H]1CCC2([C@H](CCCO)/C(=C(/C)C=O)CC[C@]2(C)O)[C@H]1O (stereo not given in full)          TGI  > 100 µM
4  CC1(c2ccc(Cl)cc2)c2ccccc2C(=O)N1CCCN1C(=O)c2ccccc2C1=O (stereo not given)          TGI  > 100 µM
5  Fc1cccc(C2ON=C(c3ccccc3)N2C23CC4CC(CC(C4)C2)C3)c1 (stereo not given)          TGI   > 10 µM
6  CN=C1C=C(/N=C2/C=C(N/C(=C\C#N)C(C)(C)O)OC2(C)C)OC1(C)C          TGI  > 100 µM
7    CC(C)(C)[C@H]1NC(=O)CN1C(=O)OCc1ccccc1          TGI  > 100 µM
8  CC(C)(C)OC(=O)N1CCC2(CC1)C(=O)NCN2c1ccccc1          TGI  > 100 µM

Next compound, TGI to be filled in.
Measured TGI (U251 CNS), entry CCOC(=O)C(NC(=O)c1ccccc1)(Nc1ccc(S(=O)(=O)Nc2cc(C)on2)cc1)C(F)(F)F (stereo not given) : > 100 µM

====

# System: MALME-3M melanoma
# assay-details: NCI tumour cell line growth inhibition, 48 h
TGI values, listed per item

Record excerpt, results attached:
                                   molecule   reading
0  COc1ccc(C2C(C(=O)O)=C(COC(C)=O)Oc3cc4c(cc32)OCO4)c(OC)c1 (stereo not given)  > 100 µM
1  Fc1nc(Sc2ncnc3nc[nH]c23)nc(-c2c3ccccc3c3sc4ccccc4n23)n1  > 100 µM
2                 CNc1ccc(CSc2ccc(C)cc2)cc1  > 100 µM

Measured TGI (MALME-3M melanoma), entry CNC(=O)N(CCCCC(NC(C)=O)C(=O)NCc1ccccc1)Cc1ccccc1 (stereo not given) : > 100 µM

Measured TGI (MALME-3M melanoma), entry COc1ccc(C2CC(c3cccc(Nc4ccncc4)c3)=NN2c2ccccc2)cc1 (stereo not given) : 3.08 µM

====

# Test system: HCT-15 colon
# assay-details: NCI tumour cell line growth inhibition, 48 h
TGI values, listed per item

Record excerpt, results attached:
compound	system-tested	TGI
COc1ccc2c(c1)CCC1C2CCC2(C)C(NC(=O)CCCCC3CCSS3)CCC12 (stereo not drawn)	HCT-15 colon	> 100 µM
CN(C)c1ccc(/C=C2\N=C(c3ccccc3)N(c3nc4ccc(Sc5ccccc5)cc4[nH]3)C2=O)cc1	HCT-15 colon	> 100 µM
CCOC(=O)NCC(=O)NCC(=O)NCC(N)=O	HCT-15 colon	> 100 µM

Measured TGI (HCT-15 colon), entry CCOC(=O)C(NC(=O)c1ccccc1)(Nc1ccc(S(=O)(=O)Nc2cc(C)on2)cc1)C(F)(F)F (stereo not drawn) : > 100 µM

Measured TGI (HCT-15 colon), entry `CN(CC(=O)O)c1ncc2c(n1)-c1ccccc1CC2` : > 100 µM

Measured TGI (HCT-15 colon), entry `NC(=O)N1N=C2c3ccccc3OC[C@H]2[C@@H]1c1ccccc1` : > 81.6 µM

Measured TGI (HCT-15 colon), entry `CC[C@]1(O)C[C@@H]2CN(CCc3c([nH]c4ccccc34)[C@@](C(=O)OC)(c3cc4c(cc3OC)N(C)[C@H]3[C@@](O)(C(=O)OC)[C@H](OC(=O)CCCBr)[C@]5(CC)C=CCN6CC[C@]43[C@@H]65)C2)C1` : > 100 µM

====

# Tested on: SNB-19 CNS
# assay-details: NCI tumour cell line growth inhibition, 48 h
metric-name: TGI

Record excerpt, results attached:
                                   molecule  metric_name   reading
0  Fc1cccc(C2ON=C(c3ccccc3)N2C23CC4CC(CC(C4)C2)C3)c1 (centres undefined)          TGI   > 10 µM
1  Nc1c([N+](=O)[O-])ncn1C1OC(CO)C(O)C1O (centres undefined)          TGI  > 100 µM
2  CC(C)C(Nc1c2ccccc2[n+](C)c2ccccc12)C(=O)O (centres undefined)          TGI  > 100 µM

Next molecule, TGI to be filled in.
Measured TGI (SNB-19 CNS), entry CC(=O)N1CN2C(=O)CCC2c2cc(C)ccc21 (centres undefined) : > 100 µM

====

TGI values, listed per item
# Tested on: LXFL 529 NSCLC
# assay-details: NCI tumour cell line growth inhibition, 48 h

In [3]: df
Out[3]:
                                   compound   reading
0  COc1cc([C@H]2c3cc4c(cc3[C@H](NCc3ccc(F)cc3)C3COC(=O)[C@H]32)OCO4)cc(OC)c1O (stereo not given in full)  > 100 µM
1  CC(C)C(Nc1c2ccccc2[n+](C)c2ccccc12)C(=O)O (stereo not given)  > 100 µM
2       O=c1c2ccccc2n2nnc3ccc(NCCNCCO)c1c32   14.2 µM
3  O=C(Nc1c(Cl)cc([N+](=O)[O-])cc1Cl)C(=O)C(C(=O)c1ccncc1)C1OC(=O)c2ccccc21 (stereo not given)  > 100 µM

Next compound, TGI to be filled in.
The recorded TGI for entry `Cc1cc(N(CCC#N)CCC#N)ccc1/C=C1N=C(/C=C\c2ccccc2)N(c2ccc(C(=O)O)cc2)C\1=O` equals > 100 µM

====

GI50 values, listed per item
# Test system: NCI-H522 lung
# assay-details: NCI tumour cell line growth inhibition, 48 h

In [3]: df
Out[3]:
                                 smiles_str  metric_name   reading
0  COc1ccc(C2=NOC3=c4ccccc4=CSC3=C2c2ccccc2)cc1         GI50  > 100 µM
1  COc1cc(C(=O)/C=C/c2c(C)n([O-])c3ccc(Cl)cc3[n+]2=O)cc(OC)c1OC         GI50   1.12 µM
2  COc1ccc(-c2nc3sccn3c2/C=C/C(=O)c2cc(OC)c(OC)c(OC)c2)cc1         GI50   4.16 µM

Next compound, GI50 to be filled in.
The recorded GI50 for entry `O=C(NCCNC1=CC(=O)c2nc3ccccc3c3ccnc1c23)c1cnccn1` equals 44 µM

====

# Test system: SF-539 CNS
# assay-details: NCI tumour cell line growth inhibition, 48 h
metric-name: TGI

Record excerpt, results attached:
molecule	system-tested	TGI
Cc1cc2nc3c(C(OC4OC(CO)C(O)C(O)C4O)C(O)CO)nn(-c4ccc(F)cc4)c3nc2cc1C (centres undefined)	SF-539 CNS	> 100 µM
CCCCCCCCCCCCCCCC[N+](C)(C)CCl	SF-539 CNS	8.13 µM
CC1=NN(C(=O)CC(=O)Nc2cccc(C)c2)C(=O)C1N=Nc1ccc(C(=O)O)cc1 (centres undefined)	SF-539 CNS	> 100 µM
CC1CC[C@@]2(OC1)OC1C[C@H]3[C@@H]4CC=C5C[C@@H](OC6OC(CO)C(OC7OC(CO)C(O)C(O)C7O)C(O)C6OC6OC(C)C(O)C(O)C6O)CC[C@]5(C)[C@H]4CC[C@]3(C)C1[C@@H]2C (some centres undefined)	SF-539 CNS	0.88 µM
c1ccc2[nH]c(-c3cscn3)nc2c1	SF-539 CNS	> 100 µM

The recorded TGI for entry `O=[N+]([O-])/C(=C/C=C/c1ccccc1)c1ccccc1` equals 3.61 µM

The recorded TGI for entry COc1ccc(C2C(C(=O)O)=C(COC(C)=O)Oc3cc4c(cc32)OCO4)c(OC)c1 (centres undefined) equals > 100 µM

The recorded TGI for entry `Cc1cc(S(=O)(=O)NC2=NCc3c(F)cccc3N2)c(S)cc1Cl` equals > 100 µM

The recorded TGI for entry CCOC(=O)c1c(-c2ccc(Cl)cc2)c(C#N)c(=S)n(C2OC(COC(C)=O)C(OC(C)=O)C(OC(C)=O)C2OC(C)=O)c1C (centres undefined) equals > 100 µM

====

TGI values, listed per item
# Tested on: NCI/ADR-RES ovarian
# assay-details: NCI tumour cell line growth inhibition, 48 h
Give a bare numeral; the unit µM is implied.

Record excerpt, results attached:
compound	reading
CCn1c(-c2cc3ccccc3cc2OC(C)=O)n[nH]c1=S	60.9
Cc1c(-c2ccccc2)oc(=O)c2ccccc12	75.4
O=[N+]([O-])/C(=C/C=C/c1ccccc1)c1ccccc1	11.9
COc1ccccc1CNCCCN1C(=O)c2ccc3c4c(ccc(c24)C1=O)C(=O)N(CCCNCCCCN)C3=O	22.8
C#CCN(CCCOc1ccc(Cl)cc1Cl)CCCSC(=O)CCCCCN1/C(=C\C=C2/CCCC(/C=C/C3=[N+](CCCCCC(=O)[O-])c4ccccc4C3(C)C)=C2Cl)C(C)(C)c2ccccc21	62.3
COc1cc(OC)c(OC)cc1/C=C\c1ccnc2ccccc12	12.1
COc1ccc2c3c(c4cc(OC)c(OC)cc4c2c1)CN1CCC[C@H]1[C@@H]3O	26.1
COc1cc(-c2cc(OC)c(OC)c3ccc(Br)cc23)c2cc(Br)ccc2c1OC	90.1
CC(CSc1nc2c(c(=N)n1-c1ccccc1)c(=S)n(-c1ccccc1)c(=S)n2-c1ccccc1)CN(C)C (stereo not given)	11.8
COc1ccc(C=C2C(C)=NN(c3cccc(Cl)c3)C23C(Cl)C(=O)N3c2nc3ccccc3s2)cc1 (stereo not given)	85.7

Measured TGI (NCI/ADR-RES ovarian), entry `Cc1cc(C)n(C(=CC(=O)C(Cl)Cl)n2nc(C)cc2C)n1` : 10.7

Measured TGI (NCI/ADR-RES ovarian), entry CCCC/C=C1/CCC(CN(C)C)C1=O (stereo not given) : 15
